- test.target: thrombin (Homo sapiens)
- Construct: consists of two polypeptide chains of 36 (light chain) and 259 amino acid
- experiment.description: Thrombin inhibition screen of crude macrocycle reactions (residual thrombin activity, fluorogenic substrate Z-Gly-Gly-Arg-AMC)
- Assay type: biochemical
- condition: 10 µM macrocycle concentration; crude reactions, Library 1a-l; scaffold AA1-AA2-AA3 combined with 1-16 or '-'
Numbered stars: 1 amine (or outer) side, 2 acyl side, 3 side chain; on linkers, the order of the positions; unused ones are H or OH. Bridge positions count the residues as written; N and C are the ends. Square brackets hold non-standard residues; d marks the D form. Peptide text beside a SMILES is read from it. * marks the point of attachment. 2Thenoyl(5-Cl) = O=C(c1ccc(Cl)s1)*; Cysteamide = C(CS[*:3])N[*:1]; X3 = O=C(Cc1c[nH]c2ccccc12)*; Orn = NCCC[C@H](N)C(=O)O; 2Furoyl = O=C(c1ccco1)*; Bz = O=C(c1ccccc1)*; Mpa = O=C(O)CCS
observed.property: percent residual thrombin activity (%)

>  <compound>
NC(=O)CC[C@@H]1NC(=O)CCSSCCNC(=O)[C@H]2CCCN(C2)C(=O)[C@H](CCCCNC(=O)c2ccc(Cl)s2)NC1=O [Q-D1-B4/14]

>  <result.unit>
%

>  <percent residual thrombin activity>
109.426

$$$$
>  <compound>
CC(C)[C@@H]1NC(=O)CCSSCCNC(=O)[C@@H]2CCCN2C(=O)[C@H](CCCCNC(=O)Cc2c[nH]c3ccccc23)NC1=O [V-D1-B1/12] ([Mpa]VK(X3)P-Cysteamide; disulfide 1-C)

>  <result.unit>
%

>  <percent residual thrombin activity>
105.267

$$$$
>  <compound>
O=C1CCSSCCNC(=O)[C@H](Cc2ccc(O)cc2)NC(=O)[C@H](CCCNC(=O)c2c[nH]c(=O)cn2)NC(=O)C2(CC2)CN1 [B6-D2-Y/9]

>  <result.unit>
%

>  <percent residual thrombin activity>
103.418

$$$$
>  <compound>
O=C(COc1ccccc1)NCCCC[C@@H]1NC(=O)[C@H]2CCCN(C2)C(=O)[C@@H](CO)NC(=O)CCSSCCNC1=O [s-B4-D1/13]

>  <result.unit>
%

>  <percent residual thrombin activity>
112.216

$$$$
>  <compound>
O=C1CCSSCCNC(=O)[C@H]2CCCN(C2)C(=O)[C@H](CCCCNC(=O)c2ccc(Cl)s2)NC(=O)[C@H](Cc2ccc(O)cc2)N1 [Y-D1-B4/14]

>  <result.unit>
%

>  <percent residual thrombin activity>
97.8547

$$$$
>  <compound>
COc1ccc(C(=O)NCCCC[C@@H]2NC(=O)[C@H](Cc3ccc(O)cc3)NC(=O)CCSSCCNC(=O)[C@H]3CCCN(C3)C2=O)cn1 [Y-D1-B4/10]

>  <result.unit>
%

>  <percent residual thrombin activity>
101.956

$$$$
>  <compound>
CC(C)[C@@H]1NC(=O)CCSSCCNC(=O)[C@@H]2CCCN2C(=O)[C@H](CCCCNC(=O)c2ccc(Cl)s2)NC1=O [v-D1-B1/14] ([Mpa]VK(2Thenoyl(5-Cl))P-Cysteamide; disulfide 1-C)

>  <result.unit>
%

>  <percent residual thrombin activity>
97.5215

$$$$
>  <compound>
NCCCC[C@@H]1NC(=O)[C@H](Cc2ccc(O)cc2)NC(=O)CCSSCCNC(=O)[C@H]2CCCN(C2)C1=O [Y-D1-B4/-]

>  <result.unit>
%

>  <percent residual thrombin activity>
108.211

$$$$
>  <compound>
O=C1CCSSCCNC(=O)[C@H](Cc2ccc(O)cc2)NC(=O)[C@H](CCCNC(=O)COc2ccccc2)NC(=O)CCN1 [B2-D2-Y/13]

>  <result.unit>
%

>  <percent residual thrombin activity>
109.064

$$$$
>  <compound>
COc1ccc(C(=O)NCCCC[C@@H]2NC(=O)[C@H](C(C)C)NC(=O)c3ccc(cc3)CNC(=O)CCSSCCNC2=O)cn1 [B3-V-D1/10]

>  <result.unit>
%

>  <percent residual thrombin activity>
106.658

$$$$
>  <compound>
CC(C)C[C@@H]1NC(=O)CCNC(=O)CCSSCCNC(=O)[C@H](CCCNC(=O)c2c[nH]c(=O)[nH]c2=O)NC1=O [B2-L-D2/11]

>  <result.unit>
%

>  <percent residual thrombin activity>
112.783

$$$$
>  <compound>
CC1NC(=O)CCSSCCNC(=O)C2CCCN2C(=O)C(CCCCNC(=O)c2ccco2)NC1=O (stereo not drawn) [a-D1-B1/16] ([Mpa]AK(2Furoyl)P-Cysteamide; disulfide 1-C; configuration not given here)

>  <result.unit>
%

>  <percent residual thrombin activity>
113.28

$$$$
>  <compound>
Cc1nnsc1C(=O)NCCC[C@@H]1NC(=O)CCSSCCNC(=O)[C@H](Cc2c[nH]cn2)NC(=O)c2cccc(c2)CNC1=O [D2-B5-H/15]

>  <result.unit>
%

>  <percent residual thrombin activity>
105.304

$$$$
>  <compound>
O=C1CCSSCCNC(=O)[C@H](CCCCNC(=O)c2cnccn2)NC(=O)[C@H](Cc2ccc(O)cc2)NC(=O)C2(CC2)CN1 [B6-Y-D1/2]

>  <result.unit>
%

>  <percent residual thrombin activity>
106.813

$$$$
>  <compound>
O=C1CCSSCCNC(=O)[C@H](CCCCNC(=O)c2ccccc2)NC(=O)C2(CC2)CNC(=O)[C@H](Cc2c[nH]c3ccccc23)N1 [W-B6-D1/1]

>  <result.unit>
%

>  <percent residual thrombin activity>
92.2757

$$$$
>  <compound>
O=C(NCCC[C@@H]1NC(=O)[C@H](CO)NC(=O)[C@@H]2CCCN2C(=O)CCSSCCNC1=O)c1ccccc1 [B1-S-D2/1] ([Mpa]PS[Orn](Bz)-Cysteamide; disulfide 1-C)

>  <result.unit>
%

>  <percent residual thrombin activity>
109.462

$$$$
>  <compound>
COc1ccc(C(=O)NCCCC[C@@H]2NC(=O)[C@H](CO)NC(=O)c3cccc(c3)CNC(=O)CCSSCCNC2=O)cn1 [B5-S-D1/10]

>  <result.unit>
%

>  <percent residual thrombin activity>
101.444

$$$$
>  <compound>
CC(C)CC(=O)NCCC[C@@H]1NC(=O)c2ccc(cc2)CNC(=O)[C@H](CO)NC(=O)CCSSCCNC1=O [S-B3-D2/8]

>  <result.unit>
%

>  <percent residual thrombin activity>
113.923

$$$$
>  <compound>
O=C1CCSSCCNC(=O)[C@H]2CCCN(C2)C(=O)[C@H](CCCCNC(=O)c2c[nH]c(=O)[nH]c2=O)NC(=O)[C@H](Cc2ccc(O)cc2)N1 [Y-D1-B4/11]

>  <result.unit>
%

>  <percent residual thrombin activity>
107.832

$$$$
>  <compound>
O=C1CCSSCCNC(=O)[C@H](Cc2ccc(O)cc2)NC(=O)[C@H](CCCNC(=O)c2ccc(Cl)s2)NC(=O)C2(CC2)CN1 [B6-D2-Y/14]

>  <result.unit>
%

>  <percent residual thrombin activity>
95.7216

$$$$
>  <compound>
C[C@H]1NC(=O)CCSSCCNC(=O)[C@H](CCCCNC(=O)c2c[nH]c(=O)cn2)NC(=O)CCNC1=O [a-B2-D1/9]

>  <result.unit>
%

>  <percent residual thrombin activity>
102.459

$$$$
>  <compound>
CC[C@H](C)[C@@H]1NC(=O)[C@H](CCCNC(=O)c2c[nH]c(=O)[nH]c2=O)NC(=O)c2cccc(c2)CNC(=O)CCSSCCNC1=O [B5-D2-I/11]

>  <result.unit>
%

>  <percent residual thrombin activity>
108.374

$$$$
>  <compound>
O=C1CCNC(=O)[C@H](Cc2c[nH]cn2)NC(=O)CCSSCCNC(=O)[C@H](CCCNC(=O)c2ccc(Cl)s2)N1 [H-B2-D2/14]

>  <result.unit>
%

>  <percent residual thrombin activity>
94.6113

$$$$
>  <compound>
O=C1CCSSCCNC(=O)[C@H](CCCCNC(=O)c2ccc(Cl)s2)NC(=O)[C@H](Cc2c[nH]cn2)NC(=O)c2ccc(cc2)CN1 [B3-H-D1/14]

>  <result.unit>
%

>  <percent residual thrombin activity>
102.666

$$$$

The reported numbers originate from paper PMC9250534.
